Ref: ChEMBL document CHEMBL4043287

biological target: Adenosine receptor A2b (Homo sapiens); assay: Agonist activity at human A2BAR expressed in FlpIn-CHO cells assessed as […] cAMP accumulation preincubated for 40 mins followed by forskolin addition measured after 30 mins by Alphascreen assay
Sequence (P29275 whole entry): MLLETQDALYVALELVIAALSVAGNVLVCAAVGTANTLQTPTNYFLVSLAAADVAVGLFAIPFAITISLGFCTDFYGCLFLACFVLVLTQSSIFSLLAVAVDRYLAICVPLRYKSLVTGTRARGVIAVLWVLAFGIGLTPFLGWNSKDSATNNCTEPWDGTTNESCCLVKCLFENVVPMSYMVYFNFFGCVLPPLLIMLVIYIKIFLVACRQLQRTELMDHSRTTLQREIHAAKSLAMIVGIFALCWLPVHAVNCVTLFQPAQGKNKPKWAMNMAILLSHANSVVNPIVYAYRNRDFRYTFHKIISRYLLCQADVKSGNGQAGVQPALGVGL
PROPERTY_LABEL: EC50 (nM)
Please respond with the number in nM and leave the unit unwritten.

These recorded examples may help you get a feel for the data.
[
  {
    "COMPOUND_SMILES": "CC(=O)Nc1sc(-c2ccc(C(=O)NCCCCCCNc3ncnc4c3ncn4[C@@H]3O[C@H](CO)[C@@H](O)[C@H]3O)cc2)c(-c2cccc(C(F)(F)F)c2)c1C(=O)c1ccccc1",
    "TARGET_OF_ASSAY": "Adenosine receptor A2b (Homo sapiens)",
    "UNIT_LABEL": "nM",
    "EC50": 617
  },
  {
    "COMPOUND_SMILES": "O=C(NCCCCCCNc1ncnc2c1ncn2[C@@H]1O[C@H](CO)[C@@H](O)[C@H]1O)c1cccc(-c2cccs2)c1",
    "TARGET_OF_ASSAY": "Adenosine receptor A2b (Homo sapiens)",
    "UNIT_LABEL": "nM",
    "EC50": 17.8
  },
  {
    "COMPOUND_SMILES": "Nc1sc(-c2ccc(C(=O)NCCCCCNc3ncnc4c3ncn4[C@@H]3O[C@H](CO)[C@@H](O)[C@H]3O)cc2)c(-c2cccc(C(F)(F)F)c2)c1C(=O)c1ccccc1",
    "TARGET_OF_ASSAY": "Adenosine receptor A2b (Homo sapiens)",
    "UNIT_LABEL": "nM",
    "EC50": 63.1
  },
  {
    "COMPOUND_SMILES": "Nc1sc(-c2ccc(C(=O)NCCCCCCNc3ncnc4c3ncn4[C@@H]3O[C@H](CO)[C@@H](O)[C@H]3O)cc2)cc1C(=O)c1ccccc1",
    "TARGET_OF_ASSAY": "Adenosine receptor A2b (Homo sapiens)",
    "UNIT_LABEL": "nM",
    "EC50": 224
  },
  {
    "COMPOUND_SMILES": "Nc1sc(-c2cccc(C(=O)NCCCCCCNc3ncnc4c3ncn4[C@@H]3O[C@H](CO)[C@@H](O)[C@H]3O)c2)c(-c2cccc(C(F)(F)F)c2)c1C(=O)c1ccccc1",
    "TARGET_OF_ASSAY": "Adenosine receptor A2b (Homo sapiens)",
    "UNIT_LABEL": "nM",
    "EC50": 35.5
  },
  {
    "COMPOUND_SMILES": "CCNC(=O)[C@H]1O[C@@H](n2cnc3c(NCCCCCCNC(=O)c4ccc(-c5sc(N)c(C(=O)c6ccccc6)c5-c5cccc(C(F)(F)F)c5)cc4)ncnc32)[C@H](O)[C@@H]1O",
    "TARGET_OF_ASSAY": "Adenosine receptor A2b (Homo sapiens)",
    "UNIT_LABEL": "nM",
    "EC50": 75.9
  },
  {
    "COMPOUND_SMILES": "Nc1sc(-c2ccc(C(=O)NCCCCCCNc3nc(Cl)nc4c3ncn4[C@@H]3O[C@H](CO)[C@@H](O)[C@H]3O)cc2)c(-c2cccc(C(F)(F)F)c2)c1C(=O)c1ccccc1",
    "TARGET_OF_ASSAY": "Adenosine receptor A2b (Homo sapiens)",
    "UNIT_LABEL": "nM",
    "EC50": 18.6
  },
  {
    "COMPOUND_SMILES": "Nc1sc(-c2ccccc2C(=O)NCCCCCCNc2ncnc3c2ncn3[C@@H]2O[C@H](CO)[C@@H](O)[C@H]2O)c(-c2cccc(C(F)(F)F)c2)c1C(=O)c1ccccc1",
    "TARGET_OF_ASSAY": "Adenosine receptor A2b (Homo sapiens)",
    "UNIT_LABEL": "nM",
    "EC50": 288
  }
]

Request: Param readout= EC50; system= Adenosine receptor A2b (Homo sapiens); entry= O=C(NCCCCCCNc1ncnc2c1ncn2[C@@H]1O[C@H](CO)[C@@H](O)[C@H]1O)c1ccc(-c2scc(C(=O)c3ccccc3)c2-c2cccc(C(F)(F)F)c2)cc1 ; returns value.
Response: 148

Request: Okay, and O=C(NCCCCCCNc1ncnc2c1ncn2[C@@H]1O[C@H](CO)[C@@H](O)[C@H]1O)c1ccc(-c2sccc2-c2cccc(C(F)(F)F)c2)cc1 ?
Response: 91.2

Request: Then what about the compound Nc1nc(NCCCCCCNC(=O)c2ccc(-c3sc(N)c(C(=O)c4ccccc4)c3-c3cccc(C(F)(F)F)c3)cc2)c2ncn([C@@H]3O[C@H](CO)[C@@H](O)[C@H]3O)c2n1 ?
Response: 97.7

Request: Query Nc1cc(-c2cccc(C(F)(F)F)c2)c(-c2ccc(C(=O)NCCCCCCNc3ncnc4c3ncn4[C@@H]3O[C@H](CO)[C@@H](O)[C@H]3O)cc2)s1 next
Response: 447
